Test system: SF-539 CNS
assay-info: NCI-60 one-dose screen, 48 h (100 = growth as untreated, 0 = no growth, -100 = all killed)
condition-notes: 10 µM unless noted
Compounds without any hit were thinned out: in the full panel of roughly 83,000, 20% have a hit.
reported-property: growth (%)
Give bare numbers, in %.

For each of the molecules below, note its growth.
1. COC(=O)C1C2CC3c4[nH]c5cc(OC)ccc5c4CCN3CC2CC(OC2CCCCO2)C1OC (stereo not drawn)
2. COC1(OC)C2(Cl)C=C(c3ccccc3)C1(Cl)C(Cl)=C2Cl (stereo not drawn)
3. Cc1nc2cc(Nc3nc(N4CCCCC4)nc(N4CCOCC4)n3)ccc2n1Cc1ccccc1
4. Cn1c2ccc(Cl)cc2c2nn(C(=O)c3ccccc3)c(=O)nc21
5. O=C1C2CC3C(CC2C(=O)[N]1[Sn]([c]1ccccc1)([c]1ccccc1)[c]1ccccc1)C1(Cl)C(Cl)=C(Cl)C3(Cl)C1(Cl)Cl (stereo not drawn)
6. COc1cc(/C=C/C(=O)CC(=O)/C=C/c2cc(Br)c(OC)c(OC)c2)cc(Br)c1OC

RESULT:
1: 97.6; 2: 91.5; 3: 81.6; 4: 99.9; 5: -99.9; 6: 102

For each of the molecules below, note its growth.
1. Cc1c(NCC(=O)Nc2nc3ccccc3[nH]2)c(=O)n(-c2ccccc2)n1C
2. O=C1/C(=C/c2ccc(Cl)cc2)N=C(c2ccccc2)N1CCc1cccs1

RESULT:
1: 97.7; 2: 40.3

====

Tested on: A498 renal
assay-info: NCI-60 one-dose screen, 48 h
condition-notes: 10 µM unless noted
About 83,000 compounds went through this panel and 20% of them were active in at least one assay; those are over-represented in the sample as a whole. Calls of active or inactive are those of the source. How the source made its calls: active means growth percent below 10; inactive means the rest.
Pick from True for active, False for inactive when you respond.

INSERT INTO results (molecule, assigned_label) VALUES
  ('CN1CCn2c(c(Sc3ccc(C(=O)NO)cc3)c3ccccc32)C1=O', 'True');

QUERY: Given COc1cc(C2CC(=O)Nc3c2ccc2ccccc32)cc(Br)c1OC (stereo unspecified) , state the outcome it received in this test.
RESULT: True

QUERY: And what about the molecule Oc1ccc2ccccc2c1C1NN=C(c2ccccc2)S1 (stereo unspecified) ?
RESULT: False

QUERY: And what about the molecule Cc1cc(NS(=O)(=O)c2ccc(NC(=O)COc3ccc(-c4cc5ccccc5[nH]4)cc3)cc2)no1 ?
RESULT: False

====

System: OVCAR-3 ovarian
assay-info: NCI-60 one-dose screen, 48 h (100 = growth as untreated, 0 = no growth, -100 = all killed)
condition-notes: 10 µM unless noted
About 83,000 compounds went through this panel and 20% of them were active in at least one assay; those are over-represented in the sample as a whole.
reported-property: growth (%)
Numbers only, in %.

Here are 3 molecules together with their reported answers.
INSERT INTO assay_data (molecule, target_or_test_system, quantitative_readout) VALUES
  ('FC(F)(F)c1ccc2c(c1)n1cnnc1c1nncn21', 'OVCAR-3 ovarian', 117),
  ('O=C1C2CC3C(CC2C(=O)[N]1[Sn]([c]1ccccc1)([c]1ccccc1)[c]1ccccc1)C1(Cl)C(Cl)=C(Cl)C3(Cl)C1(Cl)Cl (stereo unspecified)', 'OVCAR-3 ovarian', -97.3),
  ('CC(C)N1CCN(c2ccc(OC[C@H]3CO[C@](Cn4cncn4)(c4ccc(Cl)cc4Cl)O3)cc2)CC1', 'OVCAR-3 ovarian', 102);

For each of the molecules below, note its growth.
1. CCCN1CCN(c2ccc3nc(-c4ccc5nc(-c6ccc(C(F)(F)F)cc6)[nH]c5c4)[nH]c3c2)CC1
2. C=CC[P+](c1ccccc1)(c1ccccc1)c1ccccc1
3. Cc1ccc2c(N/N=C\c3ccco3)cc(C)nc2n1
4. O=C(CC(O)c1ccccc1)Nc1ccccn1 (stereo unspecified)
5. O=C1c2ccccc2-c2cn(Cc3ccccc3)c3cccc(c23)C1c1cccnc1 (stereo unspecified)
6. CCCN(CCC)c1ccc(/C=C/c2ccc3cc(OCC)ccc3n2)cc1
7. Cc1ccc(C(=O)Nc2ccccc2N)cc1

RESULT:
-96.9
32
88
108
2.21
132
90.8

For each of the molecules below, note its growth.
1. O=C1/C(=C/c2ccc(Cl)cc2)N=C(c2ccccc2)N1CCc1cccs1
2. COC(=O)/C=C1/CCC2C3CCC4=CC(=O)C(Br)CC4(C)C3C(=O)CC12C (stereo unspecified)
3. O=C1C(N2CCOCC2)=Cc2cccc3cccc1c23
4. CCN1C(=O)C2(Nc3ccccc3S2)c2cc(C)ccc21 (stereo unspecified)
5. Oc1cccc(Nc2nc(-c3ccccn3)cs2)c1
6. O=C(CCc1nnc2sc(/C=C\c3ccccc3)nn12)c1nc2ccccc2[nH]1
7. C[C@@H](Oc1cc(-c2cnn(C3CC4(CCCNC4)C3)c2)cnc1N)c1c(Cl)ccc(F)c1Cl (stereo partly specified)
8. COc1cc(-c2nc(SC(C)C)nc(Nc3ccccc3C)c2C#N)cc(OC)c1OC

RESULT:
1. 79.9
2. 89.5
3. 101
4. 108
5. 119
6. 115
7. 52
8. 121

For each of the molecules below, note its growth.
1. O=C(N/N=C/c1ccc2c(c1)OCO2)c1cnn2c1NC(c1ccccc1)C2 (stereo unspecified)
2. COc1ccc(-c2c3c(N)c4c(nc3nc3c2c(C)nn3-c2ccccc2)CCCCC4)cc1

RESULT:
[25.2, 72.6]

QUERY: Looking for the measured growth of CC(=O)Nc1ccc(S(=O)(=O)N/N=C\c2ccc(Cl)c(Cl)c2)cc1 , can you help?
RESULT: 111

====

Tested on: HCT-116 colon
assay-info: NCI-60 one-dose screen, 48 h
condition-notes: 10 µM unless noted
This is part of a sample that, as a whole, favours compounds with a hit. Of some 83,000 tested, about 20% had one in any assay. Calls of active or inactive are those of the source. The calls were made as follows: active = growth percent below 10; inactive = the rest.
Pick from active, inactive when you respond.

// below: answered compounds
INSERT INTO measurements (compound, target_or_test_system, assigned_label) VALUES
  ('Cc1nc2ccc(Cl)cc2n1C', 'HCT-116 colon', 'inactive'),
  ('COc1ccc(/C=N/NC(=O)c2cnn3c2NC(c2ccccc2)C3)cc1OC1CCCC1 (configuration not stated)', 'HCT-116 colon', 'inactive');

QUERY: Given CN1CCc2cccc3c2C1Cc1ccc(O)c(O)c1-3 (configuration not stated) , state the outcome it received in this test.
RESULT: inactive

QUERY: And what about the compound O=c1[nH]c(=O)n(Cc2ccc(F)cc2)cc1F ?
RESULT: inactive

QUERY: And what about the compound CCCCCCCC/C=C\CCCCCCCCOc1cccc(CC(=O)NCC[N+]2(C)CCCC2)c1 ?
RESULT: inactive

QUERY: And what about the compound Cc1nn2c(-c3nc4ccc(Cl)cc4[nH]3)c(-c3ccc(F)cc3)nc2s1 ?
RESULT: inactive

QUERY: And what about the compound CC1(C)N=C(N)N=C(N)N1c1cccc(OCCOc2cccc([N+](=O)[O-])c2)c1 ?
RESULT: inactive

QUERY: And what about the compound N#Cc1ccc(C(F)(F)F)nc1N1CCC(C(=O)Nc2ccc(Cl)cc2)CC1 ?
RESULT: inactive

QUERY: And what about the compound Cc1nc2cc(Nc3nc(N4CCCCC4)nc(N4CCOCC4)n3)ccc2n1Cc1ccccc1 ?
RESULT: active

QUERY: And what about the compound O=C(N/N=C/c1ccc2c(c1)OCO2)c1cnn2c1NC(c1ccccc1)C2 (configuration not stated) ?
RESULT: inactive

QUERY: And what about the compound COc1cc(Cn2cc(F)c(=O)[nH]c2=O)cc(OC)c1 ?
RESULT: inactive

QUERY: And what about the compound O=C1/C(=C/c2ccc(Cl)cc2)CN(Cc2cn(CCCNc3ccnc4cc(Cl)ccc34)nn2)C/C1=C\c1ccc(Cl)cc1 ?
RESULT: active

QUERY: And what about the compound CCCN(CCC)c1ccc(/C=C/c2ccc3cc(OCC)ccc3n2)cc1 ?
RESULT: inactive

QUERY: And what about the compound CCCCC(=O)N/N=C/c1cc(I)cc(I)c1O ?
RESULT: inactive

QUERY: And what about the compound COc1cccc(C2CC(=O)Nc3cc4c(cc32)CCC4)c1OC (configuration not stated) ?
RESULT: inactive

====

Test system: NCI-H226 lung
assay-info: NCI-60 one-dose screen, 48 h (100 = growth as untreated, 0 = no growth, -100 = all killed)
condition-notes: 10 µM
Compounds without any hit were thinned out: in the full panel of roughly 83,000, 20% have a hit.
Outcome label depends on growth relative to 80%: at/above gives rule met, below gives rule not met.

// below: answered molecules
INSERT INTO assay_data (molecule, assigned_label) VALUES
  ('COc1ccc(NC(=O)c2ccc3c(c2)nc(-c2ccc(Cl)cc2)n3-c2cc(C(C)(C)C)[nH]n2)cc1', 'rule met'),
  ('COc1cccc(C2C3=C(COC3=O)N(CCO)c3cc4c(cc32)CCC4)c1 (stereo unspecified)', 'rule not met'),
  ('NC(=O)c1cc(I)ccc1NC(=O)COc1ccc(Cl)cc1Cl', 'rule met'),
  ('Cn1c2c(cc(S(=O)(=O)c3ccccc3)c1=O)CCc1c-2cnn1-c1cccc(Cl)c1', 'rule met');

QUERY: Does growth meet or surpass 80% for COc1ccc(/C=C2\CN(Cc3cn(CCCNc4ccnc5cc(Cl)ccc45)nn3)C/C(=C\c3ccc(OC)cc3)C2=O)cc1 ?
RESULT: rule met

QUERY: And what about the molecule C[C@@H](Oc1cc(-c2cnn(C3CC4(CCNCC4)C3)c2)cnc1N)c1c(F)ccc(Cl)c1Cl ?
RESULT: rule not met

QUERY: And what about the molecule CCCCC(CCCC)(S(=O)(=O)CC)S(=O)(=O)CC ?
RESULT: rule met

QUERY: And what about the molecule COC(=O)c1cc(-c2ccc(C)cc2)n(C(=O)CSc2nc3sc(C(N)=O)c(C)c3c(=O)n2Cc2ccccc2)n1 ?
RESULT: rule met

QUERY: And what about the molecule COc1ccc(-n2ncc3c2ccc2cc(S(=O)(=O)c4ccccc4)c(=O)n(C)c23)cc1 ?
RESULT: rule not met

QUERY: And what about the molecule CN1CCN(CCCn2c3c(sc4ncccc43)c(=O)n3nnc(-c4ccccc4)c23)CC1 ?
RESULT: rule met

QUERY: And what about the molecule NS(=O)(=O)c1cc(Br)c2c(c1)S(=O)(=O)NCN2 ?
RESULT: rule met
